# assayComment: NCI Yeast Anticancer Drug Screen. Data for the wt1 strain (AID 149);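 note: 0% = growth of vehicle-treated wt1 cultures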
# measurementContext: S. cerevisiae wt1 strain (SPY 50644) growth inhibition; at 33.0 µM; hits give high values
The panel holds about 79,000 compounds, 15% with a hit somewhere; the sample as a whole holds those more often.
So I've got a bunch of compounds here, and I need their growth inhibition values.
Numbers only, in %.

Parameter requested: growth inhibition. Apply to each item below.
1. CC(C)(C(=O)NN)c1ccccc1
2. O=S(=O)(O)c1ccc2c(N=Nc3c(O)ccc4ccccc34)cccc2c1
3. Oc1ccc(Cc2nccc3cc(O)c(O)cc23)cc1O
4. C=Cc1c(C)c(O)cc2c1-c1ccc(O)c(C)c1CC2

[out]
1: 52; 2: 50; 3: 19; 4: 98

Parameter requested: growth inhibition. Apply to each item below.
1. COc1cc(C(C)(C)C)cc(OC)c1C(O)(c1c(OC)cc(C(C)(C)C)cc1OC)c1c(OC)cc(C(C)(C)C)cc1OC
2. CCOC(=O)/C(O)=C(/C=N/C(=S)Nc1c(CC)cccc1CC)C(=O)OCC

[out]
1: 94; 2: 21
